Target: Coagulation Factor Xa, from human plasma (human, UniProt P00742 41-488, limits assumed)
Sequence (P00742 41-488 limits assumed): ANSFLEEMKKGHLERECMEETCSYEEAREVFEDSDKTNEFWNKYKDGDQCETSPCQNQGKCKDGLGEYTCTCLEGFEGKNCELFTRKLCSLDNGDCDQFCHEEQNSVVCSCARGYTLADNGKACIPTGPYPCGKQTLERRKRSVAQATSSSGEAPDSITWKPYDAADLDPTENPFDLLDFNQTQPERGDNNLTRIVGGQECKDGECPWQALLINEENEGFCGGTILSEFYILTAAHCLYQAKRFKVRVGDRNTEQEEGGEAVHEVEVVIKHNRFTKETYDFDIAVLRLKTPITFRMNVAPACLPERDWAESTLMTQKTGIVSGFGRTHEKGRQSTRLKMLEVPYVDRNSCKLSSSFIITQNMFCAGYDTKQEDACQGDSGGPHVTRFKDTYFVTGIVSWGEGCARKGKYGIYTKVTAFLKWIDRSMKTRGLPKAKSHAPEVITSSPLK
Assay: cell-based or functional assay
Measured Property: % inhibition at 100 µM
Lab note: write values as number then unit, every time.

The recorded % inhibition at 100 µM for FCTKSDPPICY (HELM PEPTIDE1{F.C.T.K.S.D.P.P.I.C.Y.[dP].P}$PEPTIDE1,PEPTIDE1,2:R3-10:R3|PEPTIDE1,PEPTIDE1,1:R1-13:R2$$$V2.0; SMILES CC[C@H](C)[C@@H]1NC(=O)[C@@H]2CCCN2C(=O)[C@@H]2CCCN2C(=O)[C@H](CC(=O)O)NC(=O)[C@H](CO)NC(=O)[C@H](CCCCN)NC(=O)[C@H]([C@@H](C)O)NC(=O)[C@@H]2CSSC[C@H](NC1=O)C(=O)N[C@@H](Cc1ccc(O)cc1)C(=O)N1CCC[C@@H]1C(=O)N1CCC[C@H]1C(=O)N[C@@H](Cc1ccccc1)C(=O)N2) [Example 5] is 0.2%
